Assay: Terminal half life in Sprague-Dawley rat at 5 mg/kg, po via gavage by HPLC/MS analysis
Type: ADME, organism-based
Conditions: in vivo, read-out: beta t1/2 (converted)
REPORTED METRIC: half-life (h)
One number for each entry, in h.

Input Cc1c(Oc2cnc(C(=O)N3CC(C)(O)C3)cn2)ccc2c1B(O)OC2 , output reported half-life.
5.2

====

Task for the reader: assign each of the following compounds its reported pIC50.
System: Plasmodium falciparum
Assay: Antimalarial activity against Plasmodium falciparum K1 infected in human erythrocytes assessed as reduction in [3H]-hypoxanthine incorporation preincubated for 24 hrs followed by [3H]-hypoxanthine addition measured after 24 hrs by scintillation counting method
Assay type: functional, cell-based
Numbers only, as −log10 of the molar value.

O=C1C(O)=C([C@H]2CC[C@H](c3ccc(Cl)cc3)CC2)C(=O)c2ccccc21; 9.15

Now look at this entry.
Input Cc1c(Oc2cnc(C(=O)N3CC(C)(O)C3)cn2)ccc2c1B(O)OC2 , output reported pIC50.
7.21

====

Test system: Plasmodium falciparum
Assay: Antimalarial activity against Plasmodium falciparum T9/94 infected in human erythrocytes assessed as reduction in [3H]-hypoxanthine incorporation preincubated for 24 hrs followed by [3H]-hypoxanthine addition measured after 24 hrs by scintillation counting method
Type: functional, cell-based
REPORTED METRIC: IC50 (µM)
Give bare numbers, in µM.

CCc1nc(N)nc(N)c1-c1ccc(Cl)cc1; 0.038

Input Cc1c(Oc2cnc(C(=O)N3CC(C)(O)C3)cn2)ccc2c1B(O)OC2 , output reported IC50.
0.054

====

Tested on: Plasmodium berghei
Experiment: Antimalarial activity against Plasmodium berghei infected in Swiss Webster mouse assessed as mouse survival rate at 100 mg/kg administered once daily via oral gavage for 4 consecutive days beginning 1 hr after infection measured on day 15 post infection relative to control
Type: functional
REPORTED METRIC: survival at 100 mg/kg (%)
Numbers only, in %.

Some compounds with known survival at 100 mg/kg results, for comparison:
Cc1c(Oc2cnc(C(=O)N3CC(O)(C(C)C)C3)cn2)ccc2c1B(O)OC2; 100
Cc1c(Oc2cnc(C(=O)N3CC(C)(O)C3)cn2)ccc2c1B(O)OC2; 60
Cc1c(Oc2cnc(C(=O)N3CC(O)(C(F)(F)F)C3)cn2)ccc2c1B(O)OC2; 100

Input CCCC1(O)CN(C(=O)c2cnc(Oc3ccc4c(c3C)B(O)OC4)cn2)C1 , output reported survival at 100 mg/kg.
80

====

Assay: AUC (0 to infinity) in CD1 mouse at 5 mg/kg, iv by HPLC/MS analysis
Format: ADME, organism-based
Set-up: dose 5 mg/kg, time infinity, route intravenous
Details: in vivo
Task for the reader: assign each of the following molecules its reported AUC(0-inf).
Give bare numbers, in ng·h/mL.

Some molecules with known AUC(0-inf) results, for comparison:
Cc1c(Oc2cnc(C(=O)N[C@@H](CO)CC(F)(F)F)cn2)ccc2c1B(O)OC2; 21000
Cc1c(Oc2cnc(C(=O)NC(C)CO)cn2)ccc2c1B(O)OC2 (stereo not given); 39000
Cc1c(Oc2cnc(C(=O)NCCO)cn2)ccc2c1B(O)OC2; 31400
Cc1c(Oc2cnc(C(=O)N3CC(C)(O)C3)cn2)ccc2c1B(O)OC2; 20500

Now look at this entry.
Input CCC[C@H](CO)NC(=O)c1cnc(Oc2ccc3c(c2C)B(O)OC3)cn1 , output reported AUC(0-inf).
20500

Cited source: ChEMBL document CHEMBL4038305
